PROPERTY MEASURED: melting point

The cases that follow already have their melting point on record.
O=C(c1ccccc1)c1cc2cc3ccccc3cc2o1 [Compound 74a, Naphtho[2,3-b]furan-2-yl-phenylmethanone] = 140 to 142 °C
COc1ccc(C(=O)c2cc3c(s2)C(=O)c2ccccc2C3=O)cc1OC [Compound 65b] = 212 to 218 °C
O=C(c1ccccc1)c1cc2c(s1)C(=O)c1ccccc1C2=O [Compound 64b] = 158 to 159 °C
O=C(c1ccc([N+](=O)[O-])cc1)c1cc2cc3ccccc3cc2s1 [Compound 66a] = 251 to 252 °C
CC(=O)c1cc2c(s1)C(=O)c1ccccc1C2=O [Compound 63b] = 261 to 262 °C
O=C(c1ccccc1)c1cc2cc3ccccc3cc2s1 [Compound 64a] = 164 to 165 °C
O=C(c1ccc(O)c(O)c1)c1cc2c(s1)C(=O)c1ccccc1C2=O [Compound 65c] = 272 to 274 °C (dec.)
COc1ccc(C(=O)c2cc3cc4ccccc4cc3s2)cc1OC [Compound 65a] = 175 to 176 °C
O=C(c1ccc([N+](=O)[O-])cc1)c1cc2c(s1)C(=O)c1ccccc1C2=O [Compound 66b] = 270 °C

Pending compound:
// melting point value for O=C(c1ccccc1)c1cc2c(o1)C(=O)c1ccccc1C2=O [Compound 74b, 2-Benzoyl-naphtho[2,3-b]furan-4,9-dione] : 198 to 200 °C
